tested on: Botrytis cinerea; assay: Direct protectant activity against vine grey mould (Bcp); assay type: in vivo; settings: foliar spray, 1 kg/ha; activity grade 1 or 2, not defined
molecules and their reported Bcp: direct protectant activity against vine grey mould
I'd appreciate a reply containing only the number, no unit.

As a guide, the following entries are already answered.
{"structure string": "Cc1cc2c(F)ccc([N+]([O-])=NC#N)c2o1", "system under test": "Botrytis cinerea", "experimental result": 1}
{"structure string": "CC1(C)Cc2cccc([N+]([O-])=NC#N)c2O1", "system under test": "Botrytis cinerea", "experimental result": 2}
{"structure string": "N#CN=[N+]([O-])c1cc(Cl)cc2c1OCC=C2", "system under test": "Botrytis cinerea", "experimental result": 2}
{"structure string": "Cc1ccc([N+]([O-])=NC#N)c2c1CC(C)(C)O2", "system under test": "Botrytis cinerea", "experimental result": 1}
{"structure string": "N#CN=[N+]([O-])c1ccc2oc(=O)ccc2c1", "system under test": "Botrytis cinerea", "experimental result": 1}
{"structure string": "Cc1cc2cccc([N+]([O-])=NC#N)c2o1", "system under test": "Botrytis cinerea", "experimental result": 2}
{"structure string": "COC(=O)N=[N+]([O-])c1cccc2c1OC(C)(C)C2", "system under test": "Botrytis cinerea", "experimental result": 1}

For the next question, use this molecule.
Query :: May I ask what Bcp: direct protectant activity against vine grey mould has been recorded for N#CN=[N+]([O-])c1cccc2cc(-c3ccccc3)oc12 ?
Result :: 1
